- TARGET DESC: integrin α4β7 on α4β7+ memory T helper cells (Homo sapiens, UniProt P13612+P26010)
- Construct: endogenous in cells
- Sequence (P13612 34-1032): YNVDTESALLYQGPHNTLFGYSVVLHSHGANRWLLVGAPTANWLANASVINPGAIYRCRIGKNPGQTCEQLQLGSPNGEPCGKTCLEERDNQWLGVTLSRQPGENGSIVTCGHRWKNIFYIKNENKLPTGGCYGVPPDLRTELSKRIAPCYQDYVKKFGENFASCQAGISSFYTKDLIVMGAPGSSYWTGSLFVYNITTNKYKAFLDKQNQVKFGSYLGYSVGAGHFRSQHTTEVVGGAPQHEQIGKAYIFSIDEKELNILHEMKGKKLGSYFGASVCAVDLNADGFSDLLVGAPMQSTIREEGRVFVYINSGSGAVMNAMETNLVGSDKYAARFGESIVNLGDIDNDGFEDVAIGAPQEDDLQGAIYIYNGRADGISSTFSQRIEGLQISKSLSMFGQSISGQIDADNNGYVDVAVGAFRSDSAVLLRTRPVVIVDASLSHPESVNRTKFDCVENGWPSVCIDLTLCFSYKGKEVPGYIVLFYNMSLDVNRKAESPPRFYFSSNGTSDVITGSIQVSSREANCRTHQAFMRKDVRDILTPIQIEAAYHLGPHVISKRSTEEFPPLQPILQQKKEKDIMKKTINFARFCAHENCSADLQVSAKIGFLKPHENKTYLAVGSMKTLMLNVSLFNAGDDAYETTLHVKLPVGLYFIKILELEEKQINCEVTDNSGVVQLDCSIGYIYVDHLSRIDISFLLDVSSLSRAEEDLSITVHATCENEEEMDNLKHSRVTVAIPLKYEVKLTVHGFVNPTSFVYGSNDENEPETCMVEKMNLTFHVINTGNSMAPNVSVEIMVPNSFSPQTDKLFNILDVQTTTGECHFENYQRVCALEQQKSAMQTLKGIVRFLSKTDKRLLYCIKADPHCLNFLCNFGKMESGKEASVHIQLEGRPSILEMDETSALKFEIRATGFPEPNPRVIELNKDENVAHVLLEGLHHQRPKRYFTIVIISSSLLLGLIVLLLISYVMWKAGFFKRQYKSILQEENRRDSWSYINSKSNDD
- Sequence (P26010 20-798): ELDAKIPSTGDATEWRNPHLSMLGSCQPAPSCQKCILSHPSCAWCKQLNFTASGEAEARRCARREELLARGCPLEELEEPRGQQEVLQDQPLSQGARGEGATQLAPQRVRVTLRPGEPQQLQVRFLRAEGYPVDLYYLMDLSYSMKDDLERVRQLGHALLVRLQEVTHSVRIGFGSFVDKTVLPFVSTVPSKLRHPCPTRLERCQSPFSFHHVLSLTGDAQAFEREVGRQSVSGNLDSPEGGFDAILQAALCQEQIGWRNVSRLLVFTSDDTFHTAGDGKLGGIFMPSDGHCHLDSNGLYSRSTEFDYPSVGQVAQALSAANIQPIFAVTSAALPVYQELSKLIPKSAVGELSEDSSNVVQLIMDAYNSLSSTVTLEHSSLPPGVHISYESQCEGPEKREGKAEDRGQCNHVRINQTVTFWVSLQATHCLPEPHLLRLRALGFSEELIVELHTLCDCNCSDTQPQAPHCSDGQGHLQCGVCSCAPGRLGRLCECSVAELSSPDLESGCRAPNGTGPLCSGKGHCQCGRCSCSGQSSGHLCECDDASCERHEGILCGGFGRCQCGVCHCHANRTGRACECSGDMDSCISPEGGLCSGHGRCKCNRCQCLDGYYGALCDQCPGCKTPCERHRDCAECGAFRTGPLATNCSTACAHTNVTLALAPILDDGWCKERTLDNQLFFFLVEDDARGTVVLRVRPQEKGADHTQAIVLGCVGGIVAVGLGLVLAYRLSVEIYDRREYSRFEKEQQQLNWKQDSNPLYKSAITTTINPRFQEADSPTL
- ASSAY METHOD TEXT: MAdCAM-1 competition / receptor occupancy assay in human whole blood, α4β7-positive Th memory cells
- Format: cell-based
- CONDITION LABEL: human whole blood, inhibition of MAdCAM-1 binding to α4β7-positive Th memory cells, FACS; read-out: MADCAM FACS α4β7 Th mem
- Description: Analyte Competition Assay in CD4+ Integrin α4+β7-Lo Memory T Cells Receptor occupancy in primary cells was determined by measuring the amount of biotinylated human recombinant MAdCAM-1-FC or human recombinant VCAM-1-Fc bound to selected cell populations using flow cytometry. […] Receptor occupancy was calculated with the following equation: 100−((% ligand-positive cells with compound/% ligand-positive cells DMSO)*100) In Vivo T Lymphocyte Trafficking Analysis in Mouse Model of Colitis
Item-by-item account of IC50
OBSERVATION TYPE: IC50 (nM)

INSERT INTO results (smiles_structure, result) VALUES
  ('CC(C)C[C@@H]1NC(=O)c2ccc(-c3ccc(N4CCN(Cc5ccc(CN6CCN(c7ccc(-c8ccc9cc8CNC(=O)[C@@H]8CCCN8[C@H](C(=O)NC(C)(C)C)[C@H](C)NC(=O)[C@H]([C@@H](C)O)NC(=O)[C@H](CC(=O)O)NC(=O)[C@H](CC(C)C)NC9=O)cc7)CC6)cc5)CC4)cc3)c(c2)CNC(=O)[C@@H]2CCCN2[C@H](C(=O)NC(C)(C)C)[C@H](C)NC(=O)[C@H]([C@@H](C)O)NC(=O)[C@H](CC(=O)O)NC1=O', 55),
  ('CC(C)C[C@@H]1NC(=O)C[C@H](CCCCN)N(C)C(=O)[C@H](CCCCNC(=O)CCOCCOCCOCCOCCOCCOCCOCCC(=O)NCCCC[C@@H]2NC(=O)[C@@H]3CCCN3[C@H](C(=O)NC(C)(C)C)[C@H](C)NC(=O)[C@H]([C@@H](C)O)NC(=O)[C@H](CC(=O)O)NC(=O)[C@H](CC(C)C)NC(=O)C[C@H](CCCCN)N(C)C2=O)NC(=O)[C@@H]2CCCN2[C@H](C(=O)NC(C)(C)C)[C@H](C)NC(=O)[C@H]([C@@H](C)O)NC(=O)[C@H](CC(=O)O)NC1=O', 75),
  ('CC(C)C[C@@H]1NC(=O)C[C@H](CCCCN)N(C)C(=O)[C@H](CCCCNC(=O)CCCCCC(=O)NCCCC[C@@H]2NC(=O)[C@@H]3CCCN3[C@H](C(=O)NC(C)(C)C)[C@H](C)NC(=O)[C@H]([C@@H](C)O)NC(=O)[C@H](CC(=O)O)NC(=O)[C@H](CC(C)C)NC(=O)C[C@H](CCCCN)N(C)C2=O)NC(=O)[C@@H]2CCCN2[C@H](C(=O)NC(C)(C)C)[C@H](C)NC(=O)[C@H]([C@@H](C)O)NC(=O)[C@H](CC(=O)O)NC1=O', 57),
  ('CC(C)C[C@@H]1NC(=O)c2ccc(-c3ccc(N4CCN(C(=O)COCC(=O)N5CCN(c6ccc(-c7ccc8cc7CNC(=O)[C@@H]7CCCN7[C@H](C(=O)NC(C)(C)C)[C@H](C)NC(=O)[C@H]([C@@H](C)O)NC(=O)[C@H](CC(=O)O)NC(=O)[C@H](CC(C)C)NC8=O)cc6)CC5)CC4)cc3)c(c2)CNC(=O)[C@@H]2CCCN2[C@H](C(=O)NC(C)(C)C)[C@H](C)NC(=O)[C@H]([C@@H](C)O)NC(=O)[C@H](CC(=O)O)NC1=O', 90),
  ('CC(C)C[C@@H]1NC(=O)c2ccc(-c3ccc(N4CCN(C(=O)c5ccc(C(=O)N6CCN(c7ccc(-c8ccc9cc8CNC(=O)[C@@H]8CCCN8[C@H](C(=O)NC(C)(C)C)[C@H](C)NC(=O)[C@H]([C@@H](C)O)NC(=O)[C@H](CC(=O)O)NC(=O)[C@H](CC(C)C)NC9=O)cc7)CC6)s5)CC4)cc3)c(c2)CNC(=O)[C@@H]2CCCN2[C@H](C(=O)NC(C)(C)C)[C@H](C)NC(=O)[C@H]([C@@H](C)O)NC(=O)[C@H](CC(=O)O)NC1=O', 81);
